- assay_name: Half life in human plasma by TLC
- Assay type: ADME, cell-free
Exercise: for every item that follows, state its recorded half-life.
Answers are plain numbers, in min.

# annotated cases, reported half-life shown
{"columns": ["molecule", "observed"],
 "data": [
  ["Cc1cn([C@H]2C[C@H](N=[N+]=[N-])[C@@H](COP(=O)(OCCS(=O)(=O)c3ccc([N+](=O)[O-])cc3)OCCS(=O)(=O)c3ccc([N+](=O)[O-])cc3)O2)c(=O)[nH]c1=O", 1.2],
  ["Cc1cn([C@H]2C[C@H](N=[N+]=[N-])[C@@H](COP(=O)(OCCS(=O)(=O)c3ccccc3)Oc3ccccc3)O2)c(=O)[nH]c1=O (stereo partly drawn)", 27]
]}

The record that follows has no half-life shown yet.
## Task Field request: half-life | item: COc1ccc(S(=O)(=O)CCOP(=O)(OCCS(=O)(=O)c2ccc(OC)cc2)OC[C@H]2O[C@@H](n3cc(C)c(=O)[nH]c3=O)C[C@@H]2N=[N+]=[N-])cc1
## Result 33
